read-out: serum amyloid A (SAA), SAA1 (gene 6288); test: BSK_CASM3C_SAA: BioMAP Diversity Plus: CASM3C Assay for serum amyloid A (SAA) Biomarker Activity (AID 2283049); settings: primary human coronary artery smooth muscle cells; actives raise or lower the signal;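 further: SAA protein level quantified by ELISA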
Activity calls are given as the source filed them. How the source made its calls: active means hit-call score of the fitted dose curve at least 0.9, where 1 is the maximum; inactive means score below 0.9.
Possible outcomes: active, inactive

| compound | assigned_category |
| --- | --- |
| O=[N+]([O-])c1ccc(O)cc1 | inactive |
| C=C(C)C(=O)OCCC(F)(F)C(F)(F)C(F)(F)C(F)(F)C(F)(F)C(F)(F)F | inactive |
| O=C(O)Cc1cc(I)c(Oc2cc(I)c(O)c(I)c2)c(I)c1 | inactive |
| CCC(=C(c1ccc(O)cc1)c1ccc(OCCN(C)C)cc1)c1ccccc1 | active |
| CC#C[C@]1(O)CC[C@H]2[C@@H]3CCC4=CC(=O)CCC4=C3[C@@H](c3ccc(N(C)C)cc3)C[C@@]21C | inactive |
| CCCCCCCCCCCCCC[N+](C)(C)C | active |
| CCN(CC)CCNc1ccc(CNC=O)c2sc3ccc(OC)cc3c(=O)c12 | active |
| NCC(F)(F)C(F)(F)C(F)(F)C(F)(F)C(F)(F)C(F)(F)C(F)(F)F | inactive |
| c1ccc2c(c1)Cc1ccccc1-2 | inactive |
| CN1CCC[C@H]1c1cccnc1 | inactive |
| Nc1cccc2c(N)cccc12 | inactive |
| CCCCC(CC)COC(=O)CCCCC(=O)OCc1ccccc1 (stereo not drawn) | inactive |
| CC(C)(C)c1ccc(O)c(C(C)(C)C)c1 | active |
| CC(C)(C)CC(C)(C)c1ccc(O)c(-n2nc3ccccc3n2)c1 | active |
| CCCCC(CC)COC(=O)CCCCC(=O)OCC(CC)CCCC (stereo not drawn) | inactive |
| c1ccc2c(c1)ccc1ccccc12 | inactive |
| CC(C)CCCCCCOC(=O)CCCCC(=O)OCCCCCCC(C)C | inactive |
| CCCCCCCCC(=O)O | inactive |
| CC(O)CO (stereo not drawn) | inactive |
| CCCCCCCCCCCCCCCS(=O)(=O)Oc1ccccc1 | inactive |
| CCc1ccc(CCOc2ccc(CC3SC(=O)NC3=O)cc2)nc1 (stereo not drawn) | inactive |
| OCCC(F)(F)C(F)(F)C(F)(F)C(F)(F)C(F)(F)C(F)(F)F | inactive |
| CC(C)(C)c1cc(C(C)(C)C)c(O)c(C(C)(C)C)c1 | inactive |
| CCCCCCCCOC(=O)CCCCCCCCC(=O)OCCCCCCCC | inactive |
| COCC(C)OCC(C)O (stereo not drawn) | inactive |
| CC1=C(/C=C/C(C)=C/C=C/C(C)=C/C(=O)O)C(C)(C)CCC1 | inactive |
| CC[C@H](c1ccc(O)cc1)[C@@H](CC)c1ccc(O)cc1 | inactive |
| ClC1=C(Cl)C(Cl)(Cl)C(Cl)=C1Cl | active |
